system: EKVX NSCLC; experiment: NCI tumour cell line growth inhibition, 48 h
measurement.name: TGI

Worked cases, TGI given:
CN=C1CC2c3cc(OC)c(OC)cc3CCN2C2=C1C(=O)CC(C)(C)C2 (centres undefined) = > 100 µM
Clc1ccc2[nH]cc(-c3nnnn3-c3ccccc3)c2c1 = > 100 µM
CO/N=C(\COc1ccc2c(c1)oc(=O)c1cc(OC)ccc12)c1ccc(OC)cc1 = > 100 µM

Moving on to another molecule below.
For this molecule ( `C[C@@H]1CC[C@@H]2[C@@H]1[C@H](OC(=O)/C=C/c1ccccc1)[C@]1(C3CCCCC3)C[C@@H](OC(=O)CO)[C@@]2(C)O1` ), measured TGI is 15.6 µM

---

system: OVCAR-5 ovarian; test: NCI tumour cell line growth inhibition, 48 h
Assign TGI to each entry below.

Parameters: items (list). Returns: TGI for each item.
1. OCC1OC(c2nc(C3=NCCCN3)cs2)C(O)C1O (centres undefined)
2. COc1cc2c(c(OC)c1OC)-c1ccc(SC)c(=O)cc1C(NC=O)CC2 (centres undefined)
3. CN1C2CCC1CC(=CCOC(c1ccc(F)cc1)c1ccc(F)cc1)C2
4. COc1ccc(-[n+]2nc(S(=O)(=O)O)c(/C=C/c3ccc(N(C)C)cc3)cc2C#N)cc1
5. Cc1c2c(C#N)nccc2c(C)c2c1c1ccccc1n2Cc1ccccc1

*A*
1: > 100 µM; 2: > 94.3 µM; 3: 36 µM; 4: > 100 µM; 5: > 100 µM

---

test system: PC-3 prostate; assay: NCI tumour cell line growth inhibition, 48 h
Assign TGI to each entry below.

Worked cases, TGI given:
CCSc1ncnc2c1ncn2C1OC(CO)C(O)C1O (centres undefined) = > 71.3 µM
CCOC(=O)C(Cc1ccc(CCCC(=O)NCCC(=O)Nc2ccc3nc(C)sc3c2)cc1)C(=O)OCC = > 70.7 µM
CCCCCCOC(=O)/C=C/[C@]1(CO)C/C(=C/CC(C(C)C)C(C)C)C(=O)O1 = 24.4 µM
CC(=O)c1[nH]c(NCc2ccccc2)c(C(=S)Nc2ccccc2)c1N = > 100 µM
COC(=O)c1ccccc1/C=C1\Cc2ccc(C)c(C)c2C1=O = > 100 µM

Parameters: items (list). Returns: TGI for each item.
1. CN1C2CCC1CC(=CCOC(c1ccc(F)cc1)c1ccc(F)cc1)C2
2. COc1ccc(Nc2nnc(-c3cc(O)ccc3O)s2)cc1
3. CCCCCCc1cc2cc(C(=O)Nc3ccccc3)c(=N)oc2cc1O
4. Cc1c2c(C#N)nccc2c(C)c2c1c1ccccc1n2Cc1ccccc1
5. CCC(C)OC(=O)/C(Br)=C1/OC(=O)c2ccccc2-c2ccccc21 (centres undefined)
6. c1ccc(CCNc2ccccn2)nc1
7. COc1ccc(C(=O)/C=C/c2cc(-c3cc(OC)c(OC)c(OC)c3)n[nH]2)cc1OC
8. O=[N+]([O-])c1ccc2c(c1)C1=C(CO2)Cc2ccccc2O1

*A*
33.1 µM
> 50 µM
> 30.3 µM
> 100 µM
> 100 µM
> 100 µM
2.8 µM
38.6 µM

Test item `[Cl][Hg][c]1cc[c]([Hg][Cl])o1` ; PC-3 prostate; reported TGI was 28.5 µM

---

system: HCC-2998 colon; assay: NCI tumour cell line growth inhibition, 48 h
Assign TGI to each entry below.

Worked cases, TGI given:
COc1ccc(NC(=O)/C(Cc2cc(=O)oc3cc(O)ccc23)=N\NC(C)(C)C)c(OC)c1 = > 100 µM
c1ccc(CCNc2ccccn2)nc1 = > 100 µM

Moving on to another compound below.
For this compound ( `CCCc1nc(NC#N)nc(C(=O)Nc2ccccc2)c1CC` ), measured TGI is > 100 µM
